details: 293.15 K; 101.3 kPa; Liquid; Vibrating tube method
Measured Metric: mass density (kg/m3)
# value in kg/m3; strip the unit string

{"columns": ["Structure Notation", "Unit Info", "Value Measured"],
 "data": [
  ["ClC(Cl)(Cl)Br", "kg/m3", 2013.06],
  ["CCCCCCC", "kg/m3", 683.84],
  ["BrCBr", "kg/m3", 2491.67]
]}

From here, focus on the item given below.
Prompt: State, in one line, measured mass density of `ClCBr`
Completion: 1933.23

----------
conditions: 303.15 K; 101.3 kPa; Liquid; Vibrating tube method
Measured Metric: mass density (kg/m3)
# value in kg/m3; strip the unit string

{"columns": ["Structure Notation", "Measured Metric", "Value Measured"],
 "data": [
  ["ClCBr", "mass density", 1910.15]
]}

Prompt: State, in one line, measured mass density of `CCCCCCC`
Completion: 675.33

Prompt: State, in one line, measured mass density of `BrCBr`
Completion: 2465.53

Prompt: State, in one line, measured mass density of `ClC(Cl)(Cl)Br`
Completion: 1991.2

----------
conditions: 313.15 K; 101.3 kPa; Liquid; Vibrating tube method
Consider the following molecules and their measured mass density readings.
# value in kg/m3; strip the unit string

Solved entries:
{"columns": ["Molecule", "Unit Info", "mass density"],
 "data": [
  ["ClC(Cl)(Cl)Br [bromotrichloromethane]", "kg/m3", 1969.25],
  ["CCCCCCC [heptane]", "kg/m3", 666.71],
  ["ClCBr [bromochloromethane]", "kg/m3", 1886.82]
]}

Prompt: State, in one line, measured mass density of BrCBr [dibromomethane]
Completion: 2439.26

All values here come from the NIST ThermoML archive (doi:10.1021/je300775u).
